Values from patent US20230074436A1

target: human alpha-synuclein monomer (human, UniProt P37840 1-140); test: direct ELISA on coated antigen;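 also: plates coated with recombinant human, mouse or rat alpha-synuclein, purified antibody titrated 10 µg/mL down to 0.6 ng/mL for 1 h, bound antibody detected by anti-rat HRP with TMB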
measured_endpoint: pEC50
Numbers only, as −log10 of the molar value.

binder	pEC50
1H5 (antibody, rat IgG2b, V domains shown, also called clone 1H5) VH: AVQLVESGGGLVQPKESLKISCAASGFTFSDAAMYWVRQAPGKGLELVARIRTKPNNYATYYADSVKGRFTISRDDSKSMVYLQMGNLKTEDTAMYYCSADFHYFDYWGQGVMVTVSS VL: DIQMTQSPSVLSASVGDRVTLSCKAGQNINKNLDWYQQKLGEAPKLLISFTNNLQTGVPSRFSGSGSGSDYTLTISSLQPEDVATYYCYQYNSGWTFGGGTKLELK	9.82
22D11 (antibody, rat IgG1, V domains shown, also called clone 22D11) VH: AVQFVESGGGLVRPKESLKISCTASGFTFTNAAIYWVRQAPGKGLECIARIRTKPNNYATYYADSVRGRFTISRDDSKPMVYLQMNELKTEDTAMYYCAADASRGDYWGQGVMVTVSS VL: DIQMTQSPSVLSASVGDRVTFSCKASQNINKNLDWYQQKLGEVPKVLIYFTNNLQTGIPSRFSGSGSGTDYTLTISSLQPEDVATYYCYQYTSGFTFGAGTKLELK	10.52
22E11 (antibody, IgG1, V domains shown, also called clone 22E11) VH: AVQLVESGGGLVQPKESLKISCAASGFTFSTAAMYWVRQAPGKGLEWVTRIRTKPNNYATYYADSVKGRFTISRDDSKSMVYLQMDNLKTEDTAMYYCTADYYDGTPFAYWGQGTLVTVSS VL: AVVMTQTPVSLSVSLGGQVSISCRSSQSLVHNNGITYLSWYLQKPGQSPQLPIYKVSNRFSGFSDRFSGGGSGTDFTLKISRVEPDDLGLYYCGQGTQYPYTFGAGTKLELK	9.40

Returns the measured pEC50 for the input binder. Input: 20H4 (antibody, rat IgG2b, V domains shown, also called clone 20H4; rat 20H4) VH: AVQLVESGGGLVQPKESLKISCAASGFTFSNAAMYWVRQAPGKGLELLARIRTKPNNYATYHADSVKGRFTISRDDSQSMVYLHMGNLKTEDTAMYYCTADMATGDYWGPGVMVTVSS VL: DIQMTQSPPVLSVSVGDRVTLSCKASQNINKNLDWYQQKHGEAPKPLIYSTNNLQTGVPSRFSGSGSGTDYTLTISSLQPEDVATYYCYQYKSAWTFGGGTKLELR 9.74
